Origin of the recorded values: the supplement of paper PMC10567573

B1: TAF7L (parent)
chain: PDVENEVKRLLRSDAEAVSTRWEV

variants of: B1; assay: protein stability index of a GFP-peptide fusion (GPS, HEK-293T) (PSI 1-6); higher = more stable; conditions: c terminus: a fixed tail appended;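 further: lentivirally expressed fusions sorted by FACS into six bins by GFP to DsRed ratio, PSI derived from sequencing read proportions per bin multiplied by bin number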
Note that class boundaries on protein stability index are bin A: < 3; bin B: ≥ 3 and < 4; bin C: ≥ 4

entry_sequence="PDDENEVKRLLRSDAEAVSTRWEV [V3D]" assigned_class="bin C"
entry_sequence="PDVENEVKRLLRSDAEAVSTRWED [V24D]" assigned_class="bin C"
entry_sequence="PDVENEVKRLLRSDAQAVSTRWEV [E16Q]" assigned_class="bin B"
entry_sequence="PDVENEVKRLLRSDAEAVSTRGEV [W22G]" assigned_class="bin C"
entry_sequence="PDVENEVKRLLRSDAEAVSTRVEV [W22V]" assigned_class="bin C"

Data request: // return the class label for PDEENEVKRLLRSDAEAVSTRWEV [V3E]
Data returned: bin C

Data request: Hi, small favor: classify PDVEFEVKRLLRSDAEAVSTRWEV [N5F] by its protein stability index when you get a moment.
Data returned: bin A

Data request: Band for the recorded protein stability index of PDVENEVKNLLRSDAEAVSTRWEV [R9N] ?
Data returned: bin B

Data request: Form field 'band' for PDVENEVKRLNRSDAEAVSTRWEV [L11N]
Data returned: bin C

Data request: Into which bin does this variant go? PDVENEVKRLLRSDQEAVSTRWEV [A15Q]
Data returned: bin B

Data request: Band for PDVENEVKRLLRSDAEAVSTRFEV [W22F] ?
Data returned: bin B

Data request: Band for the recorded protein stability index of PDVENMVKRLLRSDAEAVSTRWEV [E6M] ?
Data returned: bin A

Data request: Each variant maps to one class by protein stability index. Which class for PDVENEVKRLLRSDAEAVSTRWEY [V24Y] ?
Data returned: bin B

Data request: Which protein stability index category applies to PDVENEVKRLLRSDAEAVSTRWEN [V24N] here?
Data returned: bin C

Data request: Which band does PDVENEVKRLERSDAEAVSTRWEV [L11E] fall in?
Data returned: bin C

Data request: Into which category would you place PDQENEVKRLLRSDAEAVSTRWEV [V3Q] ?
Data returned: bin B

Data request: Band for the recorded protein stability index of PDVENEVKRLDRSDAEAVSTRWEV [L11D] ?
Data returned: bin C

Data request: Determine which band this variant sits in: PDVENEVKRLLRSDALAVSTRWEV [E16L]
Data returned: bin A

Data request: Which class holds PDVENEVKRLLRSDAEAWSTRWEV [V18W] ?
Data returned: bin A

Data request: Which protein stability index category applies to PHVENEVKRLLRSDAEAVSTRWEV [D2H] here?
Data returned: bin A

Data request: Band for the recorded protein stability index of PDVENEVKRLLRSHAEAVSTRWEV [D14H] ?
Data returned: bin B

Data request: Determine which band this variant sits in: PDVENEVKRLLRSDAEAVSSRWEV [T20S]
Data returned: bin B

Data request: Hey, which category is PDVENEVKRLLRSDAEAYSTRWEV [V18Y] in, do you know?
Data returned: bin B
